system: GALIUM APARINE; test: Preemergence herbicidal evaluation, GALAP (Galium); assay type: in vivo; parameters: key: visual rating scale 0-9 vs control; settings: Rate 0.125 kg/ha, rated four to five weeks after treatment
ASSAY_ENDPOINT: GALAP
One number for each entry.

compound="C#CCn1c(=O)n(C)c(=O)n(-c2cc(N3C(=O)C4=C(CCCC4)C3=O)c(F)cc2Cl)c1=O [Compound 16]" assay_endpoint=GALAP quantitative_readout=0.0
compound="CC(C)OC(=O)Cn1c(=O)n(C)c(=O)n(-c2cc(N3C(=O)C4C[S+]([O-])CCN4C3=O)c(F)cc2Cl)c1=O (centres unmarked) [Compound 14]" assay_endpoint=GALAP quantitative_readout=7.0
compound="CC(C)OC(=O)Cn1c(=O)n(C)c(=O)n(-c2cc(N=c3sc(=O)n4n3CCCC4)c(F)cc2Cl)c1=O [Compound 13]" assay_endpoint=GALAP quantitative_readout=9.0
compound="C=CCn1c(=O)[nH]c(=O)n(-c2cc(N3C(=O)C4=C(CCCC4)C3=O)c(F)cc2Cl)c1=O [Compound 18]" assay_endpoint=GALAP quantitative_readout=0.0

Any idea what GALAP was measured for C=CCn1c(=O)n(C)c(=O)n(-c2cc(N3C(=O)C4=C(CCCC4)C3=O)c(F)cc2Cl)c1=O [Compound 17] ?
0.0

Every entry's value here was drawn from patent EP0745599A2.
